Target: Alpha-mannosidase (Canavalia ensiformis)
Sequence (whole entry): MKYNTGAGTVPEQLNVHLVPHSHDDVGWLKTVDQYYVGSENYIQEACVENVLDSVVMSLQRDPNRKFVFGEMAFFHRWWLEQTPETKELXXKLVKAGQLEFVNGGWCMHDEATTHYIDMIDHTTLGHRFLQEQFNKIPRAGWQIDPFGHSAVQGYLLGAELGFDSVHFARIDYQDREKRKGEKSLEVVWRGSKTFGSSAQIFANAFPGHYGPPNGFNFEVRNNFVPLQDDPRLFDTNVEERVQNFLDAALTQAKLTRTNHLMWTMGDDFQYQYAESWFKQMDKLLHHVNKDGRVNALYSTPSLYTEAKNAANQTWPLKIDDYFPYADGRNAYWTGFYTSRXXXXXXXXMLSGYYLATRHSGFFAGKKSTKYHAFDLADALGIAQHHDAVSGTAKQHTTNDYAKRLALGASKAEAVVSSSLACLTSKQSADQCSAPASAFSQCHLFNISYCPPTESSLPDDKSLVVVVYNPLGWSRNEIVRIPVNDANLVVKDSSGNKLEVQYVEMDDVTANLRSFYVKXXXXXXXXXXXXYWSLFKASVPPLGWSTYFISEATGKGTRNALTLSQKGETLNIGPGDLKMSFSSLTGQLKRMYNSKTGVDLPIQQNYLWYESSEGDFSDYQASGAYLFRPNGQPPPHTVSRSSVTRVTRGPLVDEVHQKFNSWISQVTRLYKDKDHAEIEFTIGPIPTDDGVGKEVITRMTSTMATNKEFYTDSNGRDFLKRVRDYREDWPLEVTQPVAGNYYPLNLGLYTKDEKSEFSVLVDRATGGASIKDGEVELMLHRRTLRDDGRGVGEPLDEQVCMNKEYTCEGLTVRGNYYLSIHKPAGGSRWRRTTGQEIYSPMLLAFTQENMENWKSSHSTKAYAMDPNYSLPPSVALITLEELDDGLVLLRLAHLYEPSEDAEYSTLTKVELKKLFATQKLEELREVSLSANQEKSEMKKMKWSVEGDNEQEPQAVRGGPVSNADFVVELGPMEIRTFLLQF
Test: Inhibition of jack bean alpha-mannosidase at 1 mM using p-nitrophenyl glycopyranoside preincubated for 5 mins followed by substrate addition measured after 20 mins by visible absorption spectroscopic method relative to control
Activity calls are given as the source filed them. No cut-off for these calls is given here.
recorded.endpoint: inhibition

INSERT INTO results (record_smiles, recorded_endpoint, result) VALUES
  ('O[C@@H]1[C@H](O)CN[C@H]1c1cn(Cc2ccccc2)nn1', 'inhibition', 'inactive'),
  ('O[C@@H]1[C@H](O)CN[C@@H]1Cn1cc(-c2ccccc2)nn1', 'inhibition', 'inactive'),
  ('O[C@@H]1[C@H](O)CN[C@H]1CNC(=S)Nc1ccccc1', 'inhibition', 'inactive'),
  ('[N-]=[N+]=NC[C@@H]1NC[C@@H](O)[C@H]1O', 'inhibition', '71%'),
  ('O[C@H]1[C@@H](O)CN[C@@H]1Cn1cc(-c2ccccc2)nn1', 'inhibition', '60%'),
  ('O[C@@H]1[C@H](O)CN[C@@H]1CCn1cc(-c2ccccc2)nn1', 'inhibition', 'inactive'),
  ('[N-]=[N+]=NC[C@H]1NC[C@@H](O)[C@H]1O', 'inhibition', '43%'),
  ('O[C@@H]1[C@H](O)CN[C@@H]1c1cn(Cc2ccccc2)nn1', 'inhibition', 'inactive'),
  ('O[C@@H]1[C@H](O)CN[C@H]1Cn1cc(-c2ccccc2)nn1', 'inhibition', 'inactive'),
  ('O=C(NC[C@@H]1NC[C@@H](O)[C@H]1O)c1ccccc1', 'inhibition', '71%'),
  ('O[C@@H]1[C@@H](c2cn(Cc3ccccc3)nn2)NC[C@@H]1O', 'inhibition', '30%');

###

system: Canavalia ensiformis; experiment: Inhibition of jack bean beta-N-acetylglucosaminidase at 1 mM using p-nitrophenyl glycopyranoside preincubated for 5 mins followed by substrate addition measured after 20 mins by visible absorption spectroscopic method relative to control
Activity calls are given as the source filed them. The rule behind the calls is not given here.
recorded.endpoint: inhibition

INSERT INTO results (record_smiles, recorded_endpoint, result) VALUES
  ('[N-]=[N+]=NC[C@H]1NC[C@@H](O)[C@H]1O', 'inhibition', 'inactive'),
  ('O[C@@H]1[C@H](O)CN[C@@H]1CCn1cc(-c2ccccc2)nn1', 'inhibition', 'inactive'),
  ('O[C@@H]1[C@H](O)CN[C@@H]1c1cn(Cc2ccccc2)nn1', 'inhibition', 'inactive'),
  ('O[C@H]1[C@@H](O)CN[C@@H]1Cn1cc(-c2ccccc2)nn1', 'inhibition', 'inactive'),
  ('O=C(NC[C@@H]1NC[C@@H](O)[C@H]1O)c1ccccc1', 'inhibition', '17%');
